Tested on: gene editing with Cas9
Assay: Screen of 322 new SSAP proteins, gene editing activity with Cas9 (Table 5)
Format: cell-based
Settings: normalized
Readout Kind: Cas9 with SSAP activity (normalized)

[
  {
    "Molecule": "SSAP_194: SEQ ID NO: 363; Streptomyces sp. CS014 (protein, listed as Streptomyces sp.) TENTVTAAVAVRDTGPAAQIEAYRDEYAALVPSHINADQWVRLAVGAIRGNEDLTNAARTDIGVFLRELKTAARLGLEPGTEQFYLTPRKSKAHRGQKIIKGIVGYQGIIELIYRAGAVSSVIVESVRANDTFRYVIGRDERPVHEIDWFGGDRGDLVGVYAYATMKDGATSKVVVLNHAQVMQIRAKSDSKHSEYSPWNTNPESMWLKSAVRQLMKWVPTSAEYMREQLRAQAEVAAEQPPAADLPPMPSVELNDEDEAVDAELVDEEA",
    "Readout Kind": "Cas9 with SSAP activity (normalized)",
    "Observed Value": 3.516
  },
  {
    "Molecule": "SSAP_138: SEQ ID NO: 307; unclassified Coprococcus (protein, listed as Coprococcus sp.) ANNIDLKQELAEQASKVPAKKDEEVKLTKSMTIPDMVKAMMPEIKKALPAVMTPERFTRIALSALNTTPALNQCTPMSFLAALMNAAQLGLEPNTPLGQAYLIPYKNHGTLECQFQIGYKGLIELAYRSGQMQTIQAQTVYENDEFAYQYGLEPVLVHRPAYSDRGEVKYFYGIFKTVNGGYGMAVMSRAEMDLYAKTYSKAYDSSYSPWKSNYEDMAKKTVIKQALKYAPIKTDFQRALSFDETIKKEISLDMSTVKNELLDVA",
    "Readout Kind": "Cas9 with SSAP activity (normalized)",
    "Observed Value": "−0.887"
  }
]
